# tested_system: T1, human CD40 expressed on cells (human, UniProt P25942 21-277)
# T1 construct: also called huCD40; Raji cells
# assay_summary: flow cytometry, Raji cells;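 further: cell binding of antibodies to Raji cells detected by flow cytometry using an Alexa488-labelled anti-human IgG secondary antibody, primary incubation 1 h at 4 °C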
measure: EC50 (µg/mL)
Kindly answer with a numeric value in µg/mL, unit omitted.

P1AE0403, humanized anti-CD40 antibody VH2d/VL2a, huIgG1_LALA_PG (antibody, V domains shown, also called VL2a/VH2d) VH: EVQLLESGGGLVQPGGSLRLSCAASGYSFTGYYIHWVRQAPGKGLEWVGRVIPNAGGTSYGDSVKGRFTISVDNSKNTAYLQMNSLRAEDTAVYYCAREGIYWWGQGTTVTVSS VL: DIQMTQSPSSLSASVGDRVTITCRSSQSLVHSNGNTFLHWYQQKPGKAPKLLIYTVSNRFSGVPSRFSGSGSGTDFTLTISSLQPEDFATYFCSQTTHVPWTFGGGTKVEIKR    0.12
P1AE0402, humanized anti-CD40 antibody VH2c/VL2a, huIgG1_LALA_PG (antibody, V domains shown, huIgG1 with effector silent Fc (P329G, L234A, L235A); also called VL2a/VH2c) VH: EVQLLESGGGLVQPGGSLRLSCAASGYSFTGYYIHWVRQAPGKGLEWVGRVIPNAGGTSYNQKFKGRFTISVDNSKNTAYLQMNSLRAEDTAVYYCAREGIYWWGHGTTVTVSS VL: DIQMTQSPSSLSASVGDRVTITCRSSQSLVHSNGNTFLHWYQQKPGKAPKLLIYTVSNRFSGVPSRFSGSGSGTDFTLTISSLQPEDFATYFCSQTTHVPWTFGGGTKVEIK    0.13
P1AE1001, humanized anti-CD40 antibody VH1a/VL1b, huIgG1_LALA_PG (antibody, V domains shown, huIgG1 with effector silent Fc (P329G, L234A, L235A)) VH: QVQLVQSGAEVKKPGASVKVSCKASGYSFTGYYIHWVRQAPGQSLEWMGRVIPNAGGTSYNQKFKGRVTLTVDKSISTAYMELSRLRSDDTAVYYCAREGIYWWGQGTTVTVSS VL: DIVVTQTPLSLSVTPGQPASISCRSSQSLVHSNGNTFLHWYLQKPGQSPQLLIYTVSNRFSGVPDRFSGSGSGTDFTLKISRVEAEDVGVYFCSQTTHVPWTFGGGTKVEIK    0.08
P1AE0400, humanized anti-CD40 antibody VH2a/VL2a, huIgG1_LALA_PG (antibody, V domains shown, also called VL2a/VH2a) VH: EVQLLESGGGLVQPGGSLRLSCAASGYSFTGYYIHWVRQAPGKGLEWVGRVIPNAGGTSYNQKFKGRFTISVDNSKNTAYLQMNSLRAEDTAVYYCAREGIYWWGQGTTVTVSS VL: DIQMTQSPSSLSASVGDRVTITCRSSQSLVHSNGNTFLHWYQQKPGKAPKLLIYTVSNRFSGVPSRFSGSGSGTDFTLTISSLQPEDFATYFCSQTTHVPWTFGGGTKVEIKR    0.12

Okay, now this binder:
Give EC50 for P1AE1006, humanized anti-CD40 antibody VH1c/VL1b, huIgG1_LALA_PG (antibody, V domains shown, huIgG1 with effector silent Fc (P329G, L234A, L235A)) VH: QVQLVQSGAEVKKPGASVKVSCKASGYSFTGYYIHWVRQAPGQSLEWMGRVIPNAGGTSYNQKFKGRVTLTVDKSISTAYMELSRLRSDDTAVYYCAREGIYWWGHGTTVTVSS VL: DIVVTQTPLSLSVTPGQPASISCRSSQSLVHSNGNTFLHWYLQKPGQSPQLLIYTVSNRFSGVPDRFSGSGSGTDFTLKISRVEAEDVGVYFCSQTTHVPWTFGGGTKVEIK
0.14

Data provenance is patent US20250320305A1.
